Hey, just so you know, these numbers are from paper PMC7226106.

- assayComment: Model-estimated systemic exposure (AUC) in BRAF^V600-mutated MM patients treated with CombiDT
- cond: human, plasma, oral, AUC, median (range), patients with DAB-related DLT (n = 12); last AUC before onset of DLT
measuredEndpoint: AUC (ng·h/mL)

INSERT INTO measurements (compound, displayunit, recordedvalue) VALUES
  ('CC(C)(C)c1nc(-c2cccc(NS(=O)(=O)c3c(F)cccc3F)c2F)c(-c2ccnc(N)n2)s1 [DAB, Dabrafenib]', 'ng·h/mL', 9620);

====

- assayComment: Model-estimated systemic exposure (AUC) in BRAF^V600-mutated MM patients treated with CombiDT
- cond: human, plasma, oral, AUC, median (range), patients without DAB-related DLT (n = 40); average AUC over treatment course
measuredEndpoint: AUC (ng·h/mL)

INSERT INTO results (compound, measuredendpoint, recordedvalue) VALUES
  ('CC(C)(C)c1nc(-c2cccc(NS(=O)(=O)c3c(F)cccc3F)c2F)c(-c2ccnc(N)n2)s1 [DAB, Dabrafenib]', 'AUC', 7480);
